Data provenance: ChEMBL document CHEMBL1139687

- TEST SYSTEM: UniProt:Q12809
Field: pKi. Provide a value for each of the compounds that follow.
Give bare numbers, as −log10 of the molar value.

// solved cases for pKi follow
CN1CCN=C1c1ccc(C(=O)N2CCN(S(=O)(=O)c3cc4ccc(Cl)cc4s3)CC2CC(=O)N2CCOCC2)cc1 (configuration not stated) ... 6.22
COC(=O)c1ccc(Oc2ccc(NC(=O)c3ccc(C(=N)N(C)C)cc3)c(C(=O)Nc3ccc(Cl)cn3)c2)cc1 ... 6.24
Cc1cc(C(=O)Nc2ccc(-c3ccccc3CN3CCCCC3)cc2F)n(-c2cc3ccccc3cc2F)n1 ... 6.00
CCOC(=O)C1CCN(C(=N)c2ccc(C(=O)Nc3ccc(Cl)cc3C(=O)Nc3ccc(Cl)cn3)cc2)CC1 ... 7.77
CN(C)C(=N)c1ccc(C(=O)Nc2ccc(Sc3ccc(C(=O)O)cc3)cc2C(=O)Nc2ccc(Cl)cn2)cc1 ... 5.34

# return pKi for each item in the list
1. CN(C)C(=N)c1ccc(C(=O)Nc2ccc(Cl)cc2C(=O)Nc2ccc(Cl)cn2)cc1
2. CN(C)C(=N)c1ccc(C(=O)Nc2ccc(Sc3ccc(C(=O)N(C)C)cc3)cc2C(=O)Nc2ccc(Cl)cn2)cc1
3. CCOC(=O)C1CCN(C(=N)c2ccc(C(=O)Nc3c(OC)cc(Cl)cc3C(=O)Nc3ccc(Cl)cn3)c(F)c2)CC1

Response:
1. 7.00
2. 6.43
3. 7.29

Hey, can you go through the list below and give me pKi for every item?
1. CN(CCCC(=O)O)C(=N)c1ccc(C(=O)Nc2ccc(Cl)cc2C(=O)Nc2ccc(Cl)cn2)cc1
2. CN(CC(=O)O)C(=N)c1ccc(C(=O)Nc2ccc(Cl)cc2C(=O)Nc2ccc(Cl)cn2)cc1
3. COC(=O)CCc1ccc(NC(=O)c2ccc(C(=N)N(C)C)cc2)c(C(=O)Nc2ccc(Cl)cn2)c1

Response:
1. 5.85
2. 5.85
3. 6.10

* * *

Exercise: state measured Ki for each of the molecules provided.
- TEST SYSTEM: Voltage-gated inwardly rectifying potassium channel KCNH2 (Homo sapiens, UniProt Q12809)
- Sequence (Q12809 whole entry): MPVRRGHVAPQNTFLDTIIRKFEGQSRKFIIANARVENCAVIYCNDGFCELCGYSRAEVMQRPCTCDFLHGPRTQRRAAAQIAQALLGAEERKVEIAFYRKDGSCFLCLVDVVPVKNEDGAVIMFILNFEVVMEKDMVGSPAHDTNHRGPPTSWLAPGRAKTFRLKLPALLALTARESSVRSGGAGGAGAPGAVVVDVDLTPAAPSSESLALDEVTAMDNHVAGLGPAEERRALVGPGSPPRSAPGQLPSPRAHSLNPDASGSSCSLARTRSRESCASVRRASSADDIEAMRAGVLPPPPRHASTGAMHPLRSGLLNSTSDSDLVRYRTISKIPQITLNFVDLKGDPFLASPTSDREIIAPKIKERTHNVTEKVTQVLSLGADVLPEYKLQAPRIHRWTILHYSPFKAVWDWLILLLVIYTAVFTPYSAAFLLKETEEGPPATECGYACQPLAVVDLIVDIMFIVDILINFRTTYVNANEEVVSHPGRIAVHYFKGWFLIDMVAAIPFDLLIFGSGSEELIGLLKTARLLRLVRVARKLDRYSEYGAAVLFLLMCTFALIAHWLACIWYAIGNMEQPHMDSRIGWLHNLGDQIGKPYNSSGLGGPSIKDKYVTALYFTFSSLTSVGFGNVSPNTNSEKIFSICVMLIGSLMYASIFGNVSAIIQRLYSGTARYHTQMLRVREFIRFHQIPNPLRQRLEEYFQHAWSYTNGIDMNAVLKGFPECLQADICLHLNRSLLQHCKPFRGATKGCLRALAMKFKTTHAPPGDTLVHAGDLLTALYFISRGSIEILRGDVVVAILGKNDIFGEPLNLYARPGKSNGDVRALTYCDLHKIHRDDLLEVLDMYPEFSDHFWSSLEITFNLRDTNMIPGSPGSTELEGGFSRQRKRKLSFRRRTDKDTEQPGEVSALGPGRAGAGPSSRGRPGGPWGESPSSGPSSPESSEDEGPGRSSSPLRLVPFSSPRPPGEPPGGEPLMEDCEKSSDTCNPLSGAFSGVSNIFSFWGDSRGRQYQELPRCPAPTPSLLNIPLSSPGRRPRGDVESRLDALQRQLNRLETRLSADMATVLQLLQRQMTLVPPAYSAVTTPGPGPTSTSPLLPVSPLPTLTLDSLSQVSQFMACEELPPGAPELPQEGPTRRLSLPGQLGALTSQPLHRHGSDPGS
- EXPERIMENTAL DETAILS: Displacement of [3H]dofetilide from human ERG potassium channel expressed in HEK293 cells

Before answering, review these 5 worked examples.
CN1CCN=C1c1ccc(C(=O)N2CCN(S(=O)(=O)c3cc4ccc(Cl)cc4s3)CC2CC(=O)N2CCCC(C(=O)O)C2)cc1 (stereo unspecified) ... > 10 µM
CC(=N)N1CCC(Oc2ccc(N(Cc3ccc4ccc(C(=N)N)cc4c3)S(=O)(=O)CC(=O)O)cc2)CC1 [YM-60828] ... > 10 µM
CN(C)C(=N)c1ccc(C(=O)Nc2ccc(Oc3ccc(C(=O)O)cc3)cc2C(=O)Nc2ccc(Cl)cn2)cc1 ... > 10 µM
CN(C)C(=N)c1ccc(C(=O)Nc2ccc(Cl)cc2C(=O)Nc2ccc(Cl)cn2)c(N2CCCCC2C(=O)O)c1 (stereo unspecified) ... > 2 µM
CN(C)C(=N)c1ccc(C(=O)Nc2ccc(Cl)cc2C(=O)Nc2ccc(Cl)cn2)c(N(C)CCCC(=O)O)c1 ... > 6.6 µM

Could I get Ki for every one of these entries?
1. COc1cc(Cl)cc(C(=O)Nc2ccc(Cl)cn2)c1NC(=O)c1ccc(C(=N)N2CCC(C(=O)O)CC2)cc1F
2. Cc1cc(C(=O)Nc2ccc(C(=N)N3CCCC3)cc2)n(-c2cc3ccccc3cc2C(=O)O)n1

Response:
1: > 10 µM; 2: > 10 µM

Quick one: give me Ki for each item below, same order please.
1. CN(C)C(=N)c1ccc(CN2C(=O)CN(S(=O)(=O)c3cc4cc(Cl)ccc4[nH]3)C[C@@H]2C(=O)O)cc1
2. CN(C)C(=N)c1ccc(C(=O)Nc2ccc(Cl)cc2C(=O)Nc2ccc(Cl)cn2)c(N2CCC(C(=O)O)CC2)c1
3. N=C(c1ccc(C(=O)Nc2ccc(Cl)cc2C(=O)Nc2ccc(Cl)cn2)cc1)N1CCCC(C(=O)O)C1 (stereo unspecified)
4. C/C(=C(\F)C(=O)N(CC(=O)O)c1ccc(-c2ccccc2S(N)(=O)=O)cc1)c1cccc(C(=N)N)c1

Response:
["> 10 µM", "> 10 µM", "> 10 µM", "> 10 µM"]
